assayed_target: human GR (glucocorticoid receptor) (Homo sapiens, UniProt P04150)
Construct: expressed in transfected cells; host or cells: 293 cells
Sequence (P04150 whole entry): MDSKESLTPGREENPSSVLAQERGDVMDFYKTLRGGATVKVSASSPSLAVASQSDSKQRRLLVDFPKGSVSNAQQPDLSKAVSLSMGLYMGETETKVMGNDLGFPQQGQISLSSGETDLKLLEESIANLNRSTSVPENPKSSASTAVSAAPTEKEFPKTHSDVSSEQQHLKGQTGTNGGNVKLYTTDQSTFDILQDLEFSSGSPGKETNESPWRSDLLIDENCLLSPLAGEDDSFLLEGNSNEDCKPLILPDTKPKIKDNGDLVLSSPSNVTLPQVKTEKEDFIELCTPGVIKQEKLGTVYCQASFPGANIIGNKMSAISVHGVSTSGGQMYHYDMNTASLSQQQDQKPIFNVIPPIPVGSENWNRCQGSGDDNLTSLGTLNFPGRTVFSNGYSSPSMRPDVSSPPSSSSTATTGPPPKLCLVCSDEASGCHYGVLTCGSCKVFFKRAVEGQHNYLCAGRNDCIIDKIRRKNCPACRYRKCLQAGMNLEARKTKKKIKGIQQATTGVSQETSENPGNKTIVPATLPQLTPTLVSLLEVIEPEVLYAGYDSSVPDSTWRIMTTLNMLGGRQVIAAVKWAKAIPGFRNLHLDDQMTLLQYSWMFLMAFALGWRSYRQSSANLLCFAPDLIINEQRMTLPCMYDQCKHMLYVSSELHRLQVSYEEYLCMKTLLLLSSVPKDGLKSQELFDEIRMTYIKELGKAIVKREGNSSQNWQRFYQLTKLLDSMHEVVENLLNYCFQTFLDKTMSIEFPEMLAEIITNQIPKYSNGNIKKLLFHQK
protocol_summary: Alternative Binding Assay Protocol (Method 2), 293-GR lysate, 3H-dexamethasone competition
measurement_context: 0.3 nM 3H-dexamethasone
reported_metric: Ki

QUERY: Look at this compound and give its reported Ki. Oc1ccccc1C=C1c2ccccc2Sc2ccccc21
RESULT: < 500 nM

QUERY: Look at this compound and give its reported Ki. CC(=C1c2ccccc2Sc2ccccc21)c1cccc(NS(C)(=O)=O)c1
RESULT: < 500 nM

---
QUERY: Look at this compound and give its reported Ki. CC(=C1c2ccccc2Sc2ccccc21)c1cccc(N)c1
RESULT: < 500 nM

These data points were gathered from patent US7482344B2.
